System: Pennsylvania Smartweed
Procedure Details: post-emergence herbicidal activity, greenhouse
Format: in vivo
Stated Conditions: Table II; 4 WAT; 11.2 kg/h; formulated in anhydrous tetrahydrofuran
The following compounds are listed with their measured Plant Response Index (F) values.

Recorded Plant Response Index (F) for CC(C)(C)[Si](OP(=O)(O)CNCC(=O)O)(c1ccccc1)c1ccccc1 [Ex. 5] with Pennsylvania Smartweed, please? 0 (0-24% inhibition)

For CCCCOC(=O)CNCP(=O)(O)O[Si](c1ccccc1)(c1ccccc1)C(C)(C)C [Ex. 6] then? 0 (0-24% inhibition)

For CCOC(=O)CNCP(=O)(O)O[Si](c1ccccc1)(c1ccccc1)C(C)(C)C [Ex. 7] then? 4 (100% inhibition)

For CCCCOC(=O)CNCP(=O)(O)O[Si](C)(C)C(C)(C)C [Ex. 3] then? 3 (75-99% inhibition)
